assay: Binding to hydroxyapatite (effect of bisphosphonates and their derivatives on hydroxyapatite)
This listing pairs compounds with measured log10 of Ki.
Hi team, quick reminder: these entries are log10 of Ki (µM).

# compound, log10 of Ki
rows = [
    ("O=P(O)(O)C(Cl)(Cl)P(=O)(O)O [Clodronate, reference compound]", 0.11),
    ("CC(C)OP(=O)(O)C(C)(O)P(=O)(O)O (centres unmarked)", 0.86),
    ("CCCCC(O)(P(=O)(O)O)P(=O)(O)OC(C)C (centres unmarked)", 1.19),
    ("CCCCC(O)(P(=O)(O)O)P(=O)(O)OC (centres unmarked)", 1.07),
]

Let's switch to this compound now.
Exercise: // query log10 of Ki value for entry CC(O)(P(=O)(O)O)P(=O)(O)O [Etidronate, reference compound]
Solution: -0.05
